Origin of the recorded values: patent US9675659B2

- protocolText: in vivo
- settings: Sprague-Dawley, rat, lung, inhaled, 7.2 mg/kg
readoutKind: concentration at 39 h (ng/g)
Note: unit ng/g is implicit; provide only the numeric part.

Asked: For the compound shown here, CC[C@H](C)C[C@H](C)CCCCCCCCC(=O)N[C@H]1C[C@@H](O)[C@@H](NCCN)NC(=O)[C@@H]2[C@@H](O)CCN2C(=O)[C@H]([C@H](O)CCN)NC(=O)[C@H]([C@H](O)[C@@H](O)c2ccc(O)cc2)NC(=O)[C@@H]2C[C@@H](O)CN2C(=O)[C@H]([C@@H](C)O)NC1=O [Caspofungin, caspofungin] , give the reported concentration at 39 h.
Given back: 19500
